test system: other PARP family members; assay: PASTA family-wide PARP inhibitor screening, other PARP family members; format: biochemical; conditions: read-out: IC50 most other PARP family members (does not inhibit up to)
pIC50: −log10 of the molar value.
value kind: pIC50

Reported pIC50, molecule C[C@@H](COCCC(=O)N1CCN(c2ncc(C(F)(F)F)cn2)CC1)Nc1cn[nH]c(=O)c1C(F)(F)F [RBN-2397] : ____
< 5.52
